Values were extracted from ChEMBL document CHEMBL6092225.

Test: Induction of oxygen consumption rate in rat L6 cells measured for 90 mins by Seahorse assay
Type: functional, cell-based
Details: read-out: EC50
assay_endpoint: pEC50
Numbers only, as −log10 of the molar value.

Look over these answered cases.
CCCCc1ccc(Nc2cnc3nonc3c2O)cc1 : 6.00
CC(C)(C)Oc1ccc(Nc2cnc3nonc3c2O)cc1 : 5.22

Quick check: pEC50 of `Oc1c(Nc2cccc(-c3ccccc3)c2)cnc2nonc12` ?
5.22
